Could you please report measured protease stability score for the items listed next?
# TEST_DETAILS: protease stability score; higher = more stable; yeast display proteolysis, trypsin and chymotrypsin;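 note: relative to predicted unfolded state with 0 unfolded-like and 1 meaning tenfold more protease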
The answer should be written as a number, with no unit following it.

### Prompt Answer with the recorded protease stability score of "DEDREVAENMVRLFIHFLLTGNEERLNQYFDPHTLLIVGDKRYHGMEESNKWIVELWTERVEIRHIEVDYYGDKVHATISGHHVGIVDGKRIETQVDFHFRIDKIDGRWVAREVEIRHD" only.
### Response 2.06

### Prompt Recall and state the measured protease stability score for "SELEEITRRVWERLVRDLRTGDEKSLQEMLDPNVRSDFNGVELIGRELATKLIAELRIHDVKVEDVKFQGDKMTLDTKIDGEVNGKRHEFKHTLIFVKVDGQWMIETEEFH" .
### Response 1.26

### Prompt Respond only with protease stability score recorded for "DEDREAMEELVRRTLKASSTGDEELSDQLMDPNTRIEVNGKHLIGREMWIKFLVELRIIFHEVHVHDVRSVGDKVDADVHVIFELRINGKRIDIETRVTFYFRKINGRWLVKSIRFE"
### Response 1.07

### Prompt For the sequence "HDREKLMEELVKNWIHLLKTGDEDQLHRLLDPHAKWDINGRELHGMEHINRRISEWRIEFNERHVEVIGEKIHIEGDLRVEIDGRRDEFHSEIELVIVNGRVKEIIVREG" , report protease stability score.
### Response 0.895

### Prompt For the sequence "DEEQKEALHFLENLVRSWITGDEETLKRLFDPHYRVHAENRELHGWEDVIHTAVRESEEIRLHHVKIEHLEFVDGQIFIHLNFDIDINGRREHVHTHVILLKINGRWILTKIEFH" , report protease stability score.
### Response 1.38

### Prompt Fill in protease stability score for record "SEDEEQAEHFLRLLVEALVTGDEDKIMKLIDPNVRLEAEGHDHHGRELFVKFWMELRVKEVQIEDVKLWNGRVRFDVRFDGTFNGKRFESTSHIILTKINGKWVLKKVEMR"
### Response 0.106

### Prompt Indicate the recorded protease stability score value for this sequence: "TEHHERHIKLMRKIIEALLTGDEEILRKLMDPDVRWEQGDKTVIGMEAVIKFLKDVSRHIRIKDIKIERQTDINGRMFTEGHLHIQYGDKEDTQEVHIELDVINGRIKSFHVEYR"
### Response 1.65

### Prompt Please give measured protease stability score of the following entry: "SEEEENSRLLVELYFRWLVTGNEEVHNKYLDPNMRLEIRIGDKTIETHGREEILRAMREWRIRHVELKDRHVQGDKAHIEGTIIIEFDGRDIERHLNIIIVVINGRIHEIQLHVR"
### Response 2.79

### Prompt Give recorded protease stability score. "DDIDEHAETVVDHLIRSQMTGNEELFQHLADPHARLDINGKEYVGRELVSKIITHLRIHFLEIQFLHVQGDKVTIDVKIRGKVDGRTETSDQRLILVKINGKWLLTEIEVG"
### Response 1.03

### Prompt Name the recorded protease stability score of the item "DERNDRAREYVELWEDALRTGDEHILMELADPHTRIEIGEFEIIGREEIMRFMNEIRVHVRESRIKRVTEIDGVLFADIHVRREFRFDGRSKEVRTDVIIIFNKFDGKWLLESVHVK" in your answer.
### Response -0.01

### Prompt Give reported protease stability score value for "DETETAKRFALEMLLHTLRTGDEEDKLRMLDPNARLVIGDKEFWGWKEFKKFVEKESRELRIQDSRIQHVELQGDKLHLDSVIIGQVNGVTVELKVEFVMNKIDGKWRVEEIIVR"
### Response 1.34

The origin of these recorded values is the NTF2 design screens of Basanta et al. (2020).
